The reported measurements were obtained from ChEMBL document CHEMBL5154818.

Test system: HepG2
Experiment: Antiproliferative activity against human HepG2 cells after 48 hrs by MTT assay
Type: functional, cell-based
Conditions: HepG2, 48 h
observable: IC50 (µM)
One number for each entry, in µM.

Sample records with IC50:
N#Cc1ncn(CCCCOc2ccc3c4c(nccc24)-c2ccccc2C3=O)c1C#N | 8.42
O=C1c2ccccc2-c2nccc3c(OCCCCN4CCOCC4)ccc1c23 | 10.3
O=C1c2ccccc2-c2nccc3c(OCCN4CCOCC4)ccc1c23 | 8.07
CC1CCCCN1CCCOc1ccc2c3c(nccc13)-c1ccccc1C2=O (stereo not given) | 6.56
Cc1cn(CCCCOc2ccc3c4c(nccc24)-c2ccccc2C3=O)cn1 | 11.1

Look at each compound and report its IC50.
1. O=C1c2ccccc2-c2nccc3c(OCCCN4CCOCC4)ccc1c23
2. CC1CCCCN1CCCCOc1ccc2c3c(nccc13)-c1ccccc1C2=O (stereo not given)
3. O=C1c2ccccc2-c2nccc3c(OCCCCCn4cnc([N+](=O)[O-])c4)ccc1c23
4. CN1CCN(CCCCOc2ccc3c4c(nccc24)-c2ccccc2C3=O)CC1
5. O=C1c2ccccc2-c2nccc3c(OCCCCn4cnc([N+](=O)[O-])c4)ccc1c23

[10.3, 10.1, 8.67, 11.9, 14.3]
